The following compounds are shown together with reported T/C values.
test system: BDF1 mice, P388 leukemia ip, median survival T/C; experiment: NCI In Vivo Anticancer Drug Screen. Data for tumor model P388 Leukemia (intraperitoneal) in B6D2F1 (BDF1) mice; conditions: endpoint: median survival time; dose: 400.0 mg/kg/injection; schedule: Q04DX003 (ip); vehicle: saline with Tween-80; higher = longer survival
Inconclusive results and toxic doses are left out.

Example entries and their recorded answers appear below.
| compound | reported_metric | meas_value |
| --- | --- | --- |
| N=Nc1c2ccccc2c2nc3c(N)[nH]nc(N)c3nc12 | T/C | 95 % of control |
| OC(O)C(F)(F)F | T/C | 104 % of control |
| COC1CC(OS(=O)(=O)c2ccc(C)cc2)C(O)C(C)O1 (configuration not stated) | T/C | 96 % of control |
| Cc1ccc(C(=O)CCCCl)c(C)c1 | T/C | 118 % of control |

*Q* Please report the measured T/C for C=CCOc1ccccc1-c1nnn(C)n1
*A* 104 % of control

*Q* Please report the measured T/C for Cc1c(Cl)c(Cl)c(Cl)c(Cl)c1Cl
*A* 95 % of control

*Q* Please report the measured T/C for CC(=N\O)/C(=N\O)C(=O)c1ccccc1
*A* 90 % of control
